Assay: StAR promoter reporter inhibitors, counter-screen for LRH-1 inverse agonist project, cell-based, luminescence, high throughput (AID 651611)
Details: StAR promoter luciferase reporter counterscreen, at 3.6 µM, stronger effect = higher value
Overview of recorded inhibition for various compounds
Give the number; % is assumed, so skip it.

Completed entries (count: 5):
> print(dat)
                                   compound  unit.label  result
1  COc1ccc(-c2cc(-c3ccc(O)cc3)nc(N)c2C#N)cc1           %    27.8
2  CN(CCOc1ccc(Cl)cc1)C(=O)c1cccc(S(=O)(=O)N2CCN(c3ccc(F)cc3)CC2)c1           %    24.3
3          O=C(CCCc1ccccc1)c1ccc2c(c1)OCCO2           %    62.5
4  CC1CCC(C(C)C)C(OC(=O)Cn2c(-c3ccccc3)[n+](C)c3ccccc32)C1 (stereo unspecified)           %      54
5  COc1cccc(Cn2c(NCc3cccnc3)nc3c2c(=O)n(C)c(=O)n3C)c1           %    59.4

Would you kindly look at the next entry?
Look at this compound and give its reported inhibition. O=C(NCCCNc1ccc([N+](=O)[O-])cc1)C(F)(F)F
9.72
